System: MOLT-4
method.notes: Compound was evaluated for anti-HIV activity against HIV-1Lal inoculated with Molt-4 cells
Type: functional, cell-based
setup.conditions: Homo sapiens
pEC50: −log10 of the molar value.
property: pEC50

Below, 4 compounds whose answers are already recorded.
>>> data_value("Cc1cccc(C)c1OCC(=O)N[C@@H](Cc1ccccc1)[C@H](OC(=O)CCC(=O)NCC(=O)OCC1OC(n2cc(C)c(=O)[nH]c2=O)CC1N=[N+]=[N-])C(=O)N1CSC(C)(C)[C@H]1C(=O)NC(C)(C)C (stereo partly specified) [KNI-1038]")
8.28
>>> data_value("Cc1cn([C@H]2C[C@H](N=[N+]=[N-])[C@@H](CO)O2)c(=O)[nH]c1=O [ZIDOVUDINE]")
8.21
>>> data_value("Cc1cccc(C)c1OCC(=O)N[C@@H](Cc1ccccc1)[C@H](O)C(=O)N1CSC(C)(C)[C@H]1C(=O)NC(C)(C)C")
7.04
>>> data_value("Cc1cccc(C)c1OCC(=O)N[C@@H](Cc1ccccc1)[C@H](OC(=O)CCC(=O)NCCC(=O)OCC1OC(n2cc(C)c(=O)[nH]c2=O)CC1N=[N+]=[N-])C(=O)N1CSC(C)(C)[C@H]1C(=O)NC(C)(C)C (stereo partly specified) [KNI-1046]")
9.00

P = Cc1cccc(C)c1OCC(=O)N[C@@H](Cc1ccccc1)[C@H](OC(=O)CCCC(=O)NCC(=O)OCC1OC(n2cc(C)c(=O)[nH]c2=O)CC1N=[N+]=[N-])C(=O)N1CSC(C)(C)[C@H]1C(=O)NC(C)(C)C (stereo partly specified) [KNI-1039]
Q = Cc1cccc(C)c1OCC(=O)N[C@@H](Cc1ccccc1)[C@H](OC(=O)CCCC(=O)NCCC(=O)OCC1OC(n2cc(C)c(=O)[nH]c2=O)CC1N=[N+]=[N-])C(=O)N1CSC(C)(C)[C@H]1C(=O)NC(C)(C)C (stereo partly specified)
# input Given P and Q , report the one with the higher recorded pEC50. Refer to your chosen item by its label in the answer.
# output P

###

method.notes: Therapeutic index was determined
setup.conditions: read-out: Therapeutic index
property: selectivity ratio

# input Item under review: Cc1cccc(C)c1OCC(=O)N[C@@H](Cc1ccccc1)[C@H](OC(=O)CCCC(=O)NCC(=O)OCC1OC(n2cc(C)c(=O)[nH]c2=O)CC1N=[N+]=[N-])C(=O)N1CSC(C)(C)[C@H]1C(=O)NC(C)(C)C (stereo partly specified) [KNI-1039] . Reported selectivity ratio?
# output > 2000

###

subject.of.test: Human immunodeficiency virus type 1 protease (Human immunodeficiency virus 1) (UniProt Q72874)
method.notes: Compound was evaluated for the percentage inhibition of HIV protease at 5 uM
property: inhibition (%)

>>> data_value("Cc1cccc(C)c1OCC(=O)N[C@@H](Cc1ccccc1)[C@H](OC(=O)CCCC(=O)NCCC(=O)OCC1OC(n2cc(C)c(=O)[nH]c2=O)CC1N=[N+]=[N-])C(=O)N1CSC(C)(C)[C@H]1C(=O)NC(C)(C)C (some centres undefined)")
12
>>> data_value("Cc1cccc(C)c1OCC(=O)N[C@@H](Cc1ccccc1)[C@H](OC(=O)CCC(=O)NCCC(=O)OCC1OC(n2cc(C)c(=O)[nH]c2=O)CC1N=[N+]=[N-])C(=O)N1CSC(C)(C)[C@H]1C(=O)NC(C)(C)C (some centres undefined) [KNI-1046]")
7

1 = Cc1cccc(C)c1OCC(=O)N[C@@H](Cc1ccccc1)[C@H](OC(=O)CCC(=O)NCC(=O)OCC1OC(n2cc(C)c(=O)[nH]c2=O)CC1N=[N+]=[N-])C(=O)N1CSC(C)(C)[C@H]1C(=O)NC(C)(C)C (some centres undefined) [KNI-1038]
2 = Cc1cccc(C)c1OCC(=O)N[C@@H](Cc1ccccc1)[C@H](OC(=O)CCCC(=O)NCC(=O)OCC1OC(n2cc(C)c(=O)[nH]c2=O)CC1N=[N+]=[N-])C(=O)N1CSC(C)(C)[C@H]1C(=O)NC(C)(C)C (some centres undefined) [KNI-1039]
# input Looking at 1 and 2 , which one comes out lower in inhibition terms? Refer to your chosen item by its label in the answer.
# output 1
